Where these numbers come from: patent US20240299359A1

tested on: beagles; assay: 13-week repeated oral toxicity: urine test; assay type: in vivo, beagle; conditions: urine, before administration, 500 mg/kg group, female, group mean
quantity.name: Specific gravity
Enter a number only.

Request: Need Specific gravity, item CN1C(=O)NC(=O)C1O (stereo not shown)
Result: 1.02

----------
assay: Pharmacokinetic analysis in beagles after oral administration; format: in vivo, beagle; settings: beagle, dog, plasma; oral 200 mg/kg (G4), mean
quantity.name: AUC(0-inf) (µg·h/mL)
Field: numeric (µg·h/mL). Do not append units.

Request: // lookup AUC(0-inf) for CN1C(=O)NC(=O)C1O (stereo not shown)
Result: 1120

----------
Test: Pharmacokinetic analysis in beagles after oral administration
Assay type: in vivo, beagle
Settings: beagle, dog, plasma; oral 10 mg/kg (G1), mean
Description: For this purpose, 5-hydroxy-1-methylimidazolidine-2,4-dione was weighed, based on the fasting weight measured on the day of administration, using an electronic scale in accordance with the oral doses of 10, 50, 100, and 200 mg/kg for each experimental group, and was added to a 500 ml glass container, DW (distilled water) was added as an excipient, and the drug was dissolved therein through vortexing and stirring. […]
quantity.name: AUC(0-t) (ng·h/mL)
Dear colleague, please return just the value in ng·h/mL, with no unit written.

Request: I am curious: what AUC(0-t) value has been reported for CN1C(=O)NC(=O)C1O (stereo not shown) ?
Result: 65400

----------
assay: 13-week repeated oral toxicity: weight measurement; assay type: in vivo, beagle; settings: 200 mg/kg repeated oral (G2), female, week 3, mean
quantity.name: Weight, Mean (kg)
Note: unit kg is implicit; provide only the numeric part.

Request: Given the entry CN1C(=O)NC(=O)C1O (stereo not shown) , report its measured Weight, Mean.
Result: 9.5

----------
system: beagles; assay: 13-week repeated oral toxicity: urine test; type: in vivo, beagle; conditions: urine; 500 mg/kg; females; repeated administration for 13 weeks; group Mean
quantity.name: Specific gravity
Please reply with the value in numeric form only.

Request: Could you share what Specific gravity was measured for CN1C(=O)NC(=O)C1O (stereo not shown) , tested on beagles?
Result: 1.03

----------
system: beagles; test: 13-week repeated oral toxicity: hematological test; assay type: in vivo, beagle; conditions: G2 200 mg/kg, repeated administration for 13 weeks, male, group mean
quantity.name: MCH (pg)
Give your result in pg as a bare value.

Request: What measured MCH goes with CN1C(=O)NC(=O)C1O (stereo not shown) [KBP-001] ?
Result: 22.2

----------
assay: 13-week repeated oral toxicity: weight measurement; type: in vivo, beagle; conditions: 1,000 mg/kg repeated oral (G4), female, week 5, mean
quantity.name: Weight, Mean (kg)
Please give a number only; it is taken to be in kg.

Request: Please give the measured Weight, Mean for this compound: CN1C(=O)NC(=O)C1O (stereo not shown) [KBP-001]
Result: 9.5

----------
test: 13-week repeated oral toxicity: weight measurement; format: in vivo, beagle; settings: 500 mg/kg repeated oral (G3), male, week 3, mean
quantity.name: Weight, Mean (kg)
Lab book: enter the figure in kg, no units written.

Request: What value of Weight, Mean has been reported for the following molecule? CN1C(=O)NC(=O)C1O (stereo not shown)
Result: 9.9

----------
assay: 13-week repeated oral toxicity: weight measurement; type: in vivo, beagle; settings: 1,000 mg/kg repeated oral (G4), female, week 11, mean
quantity.name: Weight, Mean (kg)
Supply the numeric figure in kg, leaving out any unit text.

Request: Given the entry CN1C(=O)NC(=O)C1O (stereo not shown) , report its measured Weight, Mean.
Result: 9.8

----------
assay: 13-week repeated oral toxicity: weight measurement; type: in vivo, beagle; conditions: 1,000 mg/kg repeated oral (G4), male, week 5, mean
quantity.name: Weight, Mean (kg)
Give the number; kg is assumed, so skip it.

Request: Entry CN1C(=O)NC(=O)C1O (stereo not shown) [KBP-001] : reported Weight, Mean = ?
Result: 10.3

----------
assay: 13-week repeated oral toxicity: weight measurement; assay type: in vivo, beagle; details: 500 mg/kg repeated oral (G3), female, week 4, mean
quantity.name: Weight, Mean
Give the figure together with its unit, number first.

Request: Report Weight, Mean for CN1C(=O)NC(=O)C1O (stereo not shown) please.
Result: 9.8 kg

----------
assay: 13-week repeated oral toxicity: weight measurement; format: in vivo, beagle; conditions: 1,000 mg/kg repeated oral (G4), male, week pre, mean
quantity.name: Weight, Mean (kg)
Unit kg implied. Number only.

Request: Could you share which Weight, Mean value was measured for CN1C(=O)NC(=O)C1O (stereo not shown) ?
Result: 10.2

----------
assay: 13-week repeated oral toxicity: weight measurement; type: in vivo, beagle; conditions: 500 mg/kg repeated oral (G3), female, week 5, mean
quantity.name: Weight, Mean (kg)
Your answer is read as kg, so omit the unit and give the number.

Request: Entry CN1C(=O)NC(=O)C1O (stereo not shown) [KBP-001] : reported Weight, Mean = ?
Result: 9.8

----------
test: 13-week repeated oral toxicity: weight measurement; assay type: in vivo, beagle; settings: 500 mg/kg repeated oral (G3), female, week 0, mean
quantity.name: Weight, Mean (kg)
Record the value in kg, omitting the unit from your answer.

Request: Value lookup for Weight, Mean; key = CN1C(=O)NC(=O)C1O (stereo not shown)
Result: 9.5

----------
assay: 13-week repeated oral toxicity: weight measurement; format: in vivo, beagle; details: 200 mg/kg repeated oral (G2), male, week pre, mean
quantity.name: Weight, Mean

Request: For the molecule CN1C(=O)NC(=O)C1O (stereo not shown) , what Weight, Mean is on record?
Result: 10.2 kg

----------
assay: 13-week repeated oral toxicity: weight measurement; format: in vivo, beagle; conditions: 1,000 mg/kg repeated oral (G4), female, week 0, mean
quantity.name: Weight, Mean (kg)
Response body: numeric value in kg, unit text excluded.

Request: Using the record for CN1C(=O)NC(=O)C1O (stereo not shown) [KBP-001] , report its Weight, Mean.
Result: 9.4

----------
assay: 13-week repeated oral toxicity: weight measurement; type: in vivo, beagle; conditions: 200 mg/kg repeated oral (G2), female, week 9, mean
quantity.name: Weight, Mean
// unit must come after the numeric part

Request: So what's the measured Weight, Mean for this one? CN1C(=O)NC(=O)C1O (stereo not shown)
Result: 9.6 kg

----------
tested on: beagles; experiment: 13-week repeated oral toxicity: hematological test; type: in vivo, beagle; conditions: G2 200 mg/kg, repeated administration for 13 weeks, male, group mean
quantity.name: MCV (fL)
Express it in fL; write the number only.

Request: Give the measured MCV of CN1C(=O)NC(=O)C1O (stereo not shown) .
Result: 66.4

----------
tested on: beagles; assay: 13-week repeated oral toxicity: hematological test; type: in vivo, beagle; settings: G3 500 mg/kg group, female (F7-F9, Mean), before administration (day 0); mean
quantity.name: MCH (pg)
Report as a plain number; the unit pg is understood.

Request: What value of measured MCH is listed for CN1C(=O)NC(=O)C1O (stereo not shown) ?
Result: 22.3

----------
test: 13-week repeated oral toxicity: weight measurement; type: in vivo, beagle; details: 200 mg/kg repeated oral (G2), male, week 6, mean
quantity.name: Weight, Mean (kg)
Kindly provide the numeric value in kg only, without the unit symbol.

Request: Recorded Weight, Mean of CN1C(=O)NC(=O)C1O (stereo not shown) [KBP-001] , please.
Result: 10.1

----------
test: 13-week repeated oral toxicity: weight measurement; format: in vivo, beagle; conditions: 200 mg/kg repeated oral (G2), male, week 7, mean
quantity.name: Weight, Mean (kg)
Supply the numeric figure in kg, leaving out any unit text.

Request: Suppose we examine the compound CN1C(=O)NC(=O)C1O (stereo not shown) [KBP-001] ; what Weight, Mean value has been reported?
Result: 10.2

----------
system: beagles; experiment: 13-week repeated oral toxicity: hematological test; type: in vivo, beagle; settings: G3 500 mg/kg group, male (M7-M9, Mean), before administration (day 0); mean
quantity.name: MCH

Request: Please look up its MCH: CN1C(=O)NC(=O)C1O (stereo not shown) [KBP-001]
Result: 22.7 pg

----------
assay: Pharmacokinetic analysis in beagles after oral administration; type: in vivo, beagle; details: beagle, dog, plasma; oral G3 (100 ng/kg [sic]; text 100 mg/kg), mean
quantity.name: AUC(0-t) (µg·h/mL)
Report only the number, with the unit µg·h/mL understood.

Request: # input compound: CN1C(=O)NC(=O)C1O (stereo not shown) ; wanted: its AUC(0-t)
Result: 466

----------
test: 13-week repeated oral toxicity: weight measurement; format: in vivo, beagle; conditions: 200 mg/kg repeated oral (G2), male, week 11, mean
quantity.name: Weight, Mean (kg)
A number alone suffices; assume kg.

Request: Form field: reported Weight, Mean of CN1C(=O)NC(=O)C1O (stereo not shown)
Result: 10.3

----------
system: beagles; assay: 13-week repeated oral toxicity: hematological test; assay type: in vivo, beagle; settings: G2 200 mg/kg, repeated administration for 13 weeks, female, group mean
quantity.name: MCV (fL)
Just the number please, in fL, no unit attached.

Request: What value of MCV has been reported for the following compound? CN1C(=O)NC(=O)C1O (stereo not shown)
Result: 67.9
